property: Ki (nM)
Kindly provide the numeric value in nM only, without the unit symbol.

[in] Which measured Ki belongs to CCN(CC)CC(O)CNc1ccc(NCC2CO2)c2c1C(=O)c1ccccc1C2=O (stereo not shown) , tested on purified, human Bcl2 protein (Homo sapiens, UniProt P10415)?
[out] 0.93

----------
experiment: in vivo; settings: C57BL/6, mouse, maximum therapeutic dose for continuous treatment (10% of single dose MTD)
property: MTD

[in] If you can, please state the reported MTD value of CCN(CC)CC(O)CNc1ccc(NCC2CO2)c2c1C(=O)c1ccccc1C2=O (stereo not shown) [BDA-366] .
[out] 30 to 40 mg/kg
